Value source: PubChem BioAssay (Tox21)

measurementDescription: qHTS assay for small molecule disruptors of the mitochondrial membrane potential - cell viability (AID 720634);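 note: human HepG2 liver cancer cells; nearly all actives have a fitted effect of over 20% in size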
experimentalConditions: HepG2 viability, ATP luminescence (CellTiter-Glo), 1 h; series mostly up to 83.2 µM
Inconclusive results are not listed. Calls of active or inactive are those of the source. Calls come from the whole dose curve.
observedProperty: activity change, negative = cytotoxicity

# count of solved cases: 4
CC1=CC(C)C(C=O)C(C)C1 (configuration not stated) :: inactive
NC1CCN(c2cccc(Cl)n2)CC1 :: inactive
Oc1cc(O)c2c(c1)O[C@H](c1ccc(O)c(O)c1)[C@H](O)C2 :: inactive
CC(=O)N[C@@H](CCC(N)=O)C(=O)O :: inactive

Measured activity change, negative = cytotoxicity, OCCN1C[C@H](O)[C@@H](O)[C@H](O)[C@H]1CO : inactive

Quick note, activity change, negative = cytotoxicity for N#CC1(O)CCCCC1 landed at inactive

activity change, negative = cytotoxicity recorded for this molecule, CCCC=O , is inactive

Noted for CC(=O)NC(Cc1ccccc1)C(=O)O (configuration not stated) : its activity change, negative = cytotoxicity reads inactive

Reported activity change, negative = cytotoxicity of CCCOc1ccccc1-c1nc2n[nH]nc2c(=O)[nH]1 : inactive

Entry CSc1ccc(C=O)cc1 ; activity change, negative = cytotoxicity = inactive

activity change, negative = cytotoxicity reported for this molecule O=C(O)c1ccc[n+]([O-])c1 : inactive

The reported value for CC(C=O)Cc1ccc(C(C)C)cc1 (configuration not stated) in terms of activity change, negative = cytotoxicity is inactive

The molecule c1ccc(SCCSc2ccccc2)cc1 showed activity change, negative = cytotoxicity equal to inactive

Lab note: measured activity change, negative = cytotoxicity of O=C1C(CCS(=O)c2ccccc2)C(=O)N(c2ccccc2)N1c1ccccc1 (configuration not stated) was inactive

Quick note, activity change, negative = cytotoxicity for CCOC(=O)[C@H](CCc1ccccc1)N[C@@H](C)C(=O)N1CCC[C@H]1C(=O)O landed at inactive

Note to self: activity change, negative = cytotoxicity recorded for NC(N)=NS(=O)(=O)c1ccc(N)cc1 was inactive

Record CC(=O)OC(C)(C)C . Reported activity change, negative = cytotoxicity: inactive

Entry under test: CCCCCCCCN(C)CCCCCCCC . Its activity change, negative = cytotoxicity was inactive

The measured activity change, negative = cytotoxicity associated with CC(C)[C@H](N)C(=O)OCCOCn1cnc2c(=O)[nH]c(N)nc21 reads inactive

For this molecule ( OC1OC[C@@H](O)[C@H](O)[C@H]1O (some centres not stated) ), measured activity change, negative = cytotoxicity is inactive

// activity change, negative = cytotoxicity value for C/C=C1\C(=O)C[C@H]2[C@@H]3CCC4=CC(=O)CC[C@]4(C)[C@H]3CC[C@]12C : inactive

Recorded result, CC(=O)c1ccc(C)cc1 , activity change, negative = cytotoxicity: inactive

molecule CCCCCN(CCCCC)C(=O)C(CCC(=O)O)NC(=O)c1ccc(Cl)c(Cl)c1 (configuration not stated) , activity change, negative = cytotoxicity observed: inactive

For this molecule ( CO[Si](CCCNCCC[Si](OC)(OC)OC)(OC)OC ), measured activity change, negative = cytotoxicity is inactive

---

measurementDescription: qHTS assay for small molecule disruptors of the mitochondrial membrane potential (AID 720635)
experimentalConditions: HepG2 mitochondrial membrane potential, Mito-MPS dye ratio; series mostly up to 83.2 µM
Results filed as inconclusive are left out. The source made the active and inactive calls. Calls come from the whole dose curve; as a rule, active = well fitted inhibition curve with a large enough effect in the signal ratio in the repeat runs; inconclusive = weak or mixed curves, or effect the other way; inactive = flat fitted curve, though single readings scatter; the % refers to the signal ratio.
Choose the fitting class; nothing outside True (active), False (inactive) is accepted.

Status in this test for CC(C)=CCC/C(C)=C/C(=O)O ?
False

Status in this test for CC(C)(C)CC(C)(C)N ?
False

Please indicate how the test categorized CCCCCC[C@@H](CCC)C(=O)O .
False

Fill in: this test's call for O=[N+]([O-])c1ccc(Oc2ccc([N+](=O)[O-])cc2)cc1 is ___
True

Per the records of this test, what outcome belongs to c1ccc2cnncc2c1 ?
False

Call for entry CC(=O)NC(Cc1ccccc1)C(=O)O (centres undefined) :
False

Name the outcome recorded for C=CCSCC1Nc2cc(Cl)c(S(N)(=O)=O)cc2S(=O)(=O)N1 (centres undefined) in the assay.
False

In this assay, the call recorded for CCCCCCC(CCCCCCCCCCC(=O)OCC(COC(C)=O)OC(C)=O)OC(C)=O (centres undefined) was what?
False

Kindly provide the recorded test outcome for the following compound: CCCC=O
False

Per the records of this test, what outcome belongs to CCCCC=O ?
False

Outcome? CC(=O)O[C@H](CC(=O)[O-])C[N+](C)(C)C
False

Identify the outcome logged in this assay for the compound shown: Cc1cc(C)c(NC(=O)CN(CC(=O)O)CC(=O)O)c(C)c1Br
False

I would be grateful if you could indicate the recorded call for CSc1nc(NC2CC2)nc(NC(C)(C)C)n1 .
True

Would you mind telling me which call this test gave COc1ccc(N=[N+]([O-])c2ccc(OC)cc2)cc1 ?
True

---

measurementDescription: qHTS assay for identifying genotoxic compounds that show differential cytotoxicity against isogenic chicken DT40 cell lines with known DNA damage response pathways - Rev3 mutant cell line (AID 743014); note: nearly all actives have a fitted effect of over 55% in size
experimentalConditions: chicken DT40 Rev3-/- viability, CellTiter-Glo, 40 h; series mostly up to 68.4 µM
Inconclusive results are not listed. Activity calls are given as the source filed them. Calls follow the shape of the dose curve; as a rule, active = well fitted cell-killing curve with a large enough effect in the repeat runs; inconclusive = weak or mixed curves, or effect the other way; inactive = no such curve, though single readings can be large or run the other way.
Respond using exactly one of the listed classes: TRUE for active, FALSE for inactive

Look up the recorded call for CCO[Si](CCCN=C=O)(OCC)OCC in this test.
FALSE

Identify the outcome logged in this assay for the molecule shown: c1cc(CN2CCCCC2)cc(OCCCNc2nc3ccccc3s2)c1
TRUE

Lab log entry: CC(C)(C)OC(=O)N1C[C@@H](F)C[C@H]1C(=O)O — outcome as called in the assay?
FALSE

For CCCCCCCCCCCCCCCCCCOCC(O)CO (stereo not given) , which call appears in the assay record?
FALSE

Dear all, I need the recorded test outcome for C=C(C)C(=O)OCCCCCCCCCCCCCCCCCC , thank you.
FALSE

Status in this test for COc1cc(O)cc(O)c1 ?
FALSE

Returns: the outcome recorded for C=C(C)[C@H]1CC=C(C)CC1 in this assay.
FALSE

Dear all, I need the recorded test outcome for CCCCC1CCCCC(=O)O1 (stereo not given) , thank you.
FALSE

Short answer needed: outcome of this test for CCc1cc(S(=O)(=O)O)c2cc(C(C)C)cccc1-2 ?
FALSE

Just curious, what result did OCc1ccccn1 get here?
FALSE

Which result was noted for this molecule in the test: C=C(C)[C@@H]1CCC2=CC(=O)C[C@@H](C)[C@]2(C)C1
FALSE

Outcome logged for Cc1ccc(Nc2ccc(O)c3c2C(=O)c2ccccc2C3=O)cc1 in this assay:
FALSE

State the result this test recorded for CCN1CCN(c2cc3c(cc2F)c(=O)c(C(=O)O)cn3C2CC2)CC1 .
FALSE

Can you look up the reported call for C=CC(=O)N1CCOCC1 for me?
FALSE

Query: recorded result category for CCCOCC(C)OCC(C)O (stereo not given) in this test
FALSE

I'd appreciate the recorded outcome for CC(=O)OC(C)(C)C from this test.
FALSE

Test call, this molecule: CN(C)N=Nc1ccccc1
FALSE

// outcome(item) with item = CC(C)c1cccc(C(C)C)c1N
FALSE

# fetch the recorded call for CC(C)c1cccc(O)c1 here
FALSE

Hi team, can someone confirm the assay call for Cc1onc(-c2ccccc2)c1-c1ccc(S(N)(=O)=O)cc1 ?
FALSE

---

measurementDescription: A CellTox Green Cytotoxicity Assay to monitor cytotoxicity in HEK293 cells - 16 hour (AID 1224888); note: nearly all actives have a fitted effect of over 35% in size
experimentalConditions: CellTox Green fluorescence; series mostly up to 76.8 µM
Results filed as inconclusive are left out. Activity calls are given as the source filed them. The call rests on the fitted dose curve; in most records, active means well fitted activation curve with a large enough effect in the repeat runs; inconclusive means weak or mixed curves; inactive means flat fitted curve, though single readings scatter.
observedProperty: activity change

Below: 4 compounds and their reported activity change.
CCCCC=O :: inactive
CC(C)c1ccc2oc3nc(N)c(C(=O)O)cc3c(=O)c2c1 :: inactive
C=C[Si](OC)(OC)OC :: inactive
CN(C)CCn1nnnc1SCC1=C(C(=O)O)N2C(=O)[C@@H](NC(=O)Cc3csc(N)n3)[C@H]2SC1 :: inactive

Entry CCn1c(=O)c2c(nc(/C=C/c3ccc(OC)c(OC)c3)n2C)n(CC)c1=O ; activity change = inactive

Kindly note the recorded activity change for OCCN1C[C@H](O)[C@@H](O)[C@H](O)[C@H]1CO , which is inactive

Lab note: O=S(=O)(O)c1ccccc1O gave activity change of inactive

For COc1ccc(COC=O)cc1 the compound record lists activity change as inactive

Field activity change (entry CO[Si](CCCNCCC[Si](OC)(OC)OC)(OC)OC ) reads inactive

activity change for Cc1ncc(CSSCc2cnc(C)c(O)c2CO)c(CO)c1O is inactive

Lookup result for c1ccc(SCCSc2ccccc2)cc1 ; measured activity change: inactive

# compound CCCCCCCCCCCCCCCCCCOCC(O)CO (stereo not drawn) ; its activity change = inactive

Form field activity change, entry CCCCCCOC(=O)c1ccccc1O : inactive

The recorded activity change for entry c1ccc2cnncc2c1 equals inactive

Notebook: CCCCCCCCCCC1CO1 (stereo not drawn) , activity change read as inactive

The compound CCCCCCC(=O)OCC showed activity change equal to inactive

Kindly note the recorded activity change for O=C1OC(=O)c2cc([N+](=O)[O-])ccc21 , which is inactive

According to the records, this compound CC(C)CCCCCCN displays activity change of inactive
